Readings of ELISA signal (heat map) for the listed binders
target.or.system: T1, L1 (DV1-GV4), soluble human Vδ1/Vγ4 γδ TCR heterodimer in leucine zipper format (human)
T1 construct: Biotinylated in the DELFIA ranking; also called Antigen L1 (TRDV1/TRGV4); human DV1-GV4; not shown: gamma chain: Vγ4 (TRGV4) domain on a TCR constant region, leucine zipper, histidine tag
T1 sequence (main, as listed by the source): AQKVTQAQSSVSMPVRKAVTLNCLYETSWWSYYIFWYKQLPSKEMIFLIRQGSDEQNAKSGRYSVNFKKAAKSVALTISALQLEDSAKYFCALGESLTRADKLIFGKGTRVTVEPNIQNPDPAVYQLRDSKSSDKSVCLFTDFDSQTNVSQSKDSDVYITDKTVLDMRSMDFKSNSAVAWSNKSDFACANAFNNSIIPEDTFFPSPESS
assay.name: DELFIA ELISA, human antigen; heat map cell of the clone
readout.kind: ELISA signal (heat map)

binder	readout.kind	number
ADT1-7-3 (antibody, IgG1, V domains shown, IgG1) VH: EVQLVESGGGLVKPGGSLRLSCAASGFTFSDYYMSWIRQAPGKGLEWVSYISSSGSTIYYADSVKGRFTISRDNAKNSLYLQMNSLRAEDTAVYYCARVSYAEAFDIWGQGTLVTVSS VL: DIQMTQSPSSLSASVGDRVTIACRAGQSIGTYLNWYQQKPGKAPKLLIYVASSLQSGVPSRFSGSGSGTEFTLTISSLQPEDFATYYCQQSYSGLDTFGRGTKVEIK	ELISA signal (heat map)	37100
ADT1-7-22 (antibody, IgG1, V domains shown, IgG1) VH: EVQLVESGGGLVKPGGSLRLSCAASGFTFSDYYMSWIRQAPGKGLEWVSYISSSGSTIYYADSVKGRFTISRDNAKNSLYLQMNSLRAEDTAVYYCARDDYNDAFDIWGQGTLVTVSS VL: DIQMTQSPSSLSASVGDRVTIACRAGQSIGTYLNWYQQKPGKAPKLLIYVASSLQSGVPSRFSGSGSGTEFTLTISSLQPEDFATYYCQQSASELLTFGRGTKVEIK	ELISA signal (heat map)	27800
ADT1-7-61 (antibody, IgG1, V domains shown, IgG1) VH: EVQLVESGGGLVKPGGSLRLSCAASGFTFSDYYMSWIRQAPGKGLEWVSYISSSGSTIYYADSVKGRFTISRDNAKNSLYLQMNSLRAEDTAVYYCARDDYDDAFDIWGQGTLVTVSS VL: DIQMTQSPSSLSASVGDRVTIACRAGQSIGTYLNWYQQKPGKAPKLLIYVASSLQSGVPSRFSGSGSGTEFTLTISSLQPEDFATYYCQQSASELLTFGRGTKVEIK	ELISA signal (heat map)	32700
ADT1-7-23 (antibody, IgG1, V domains shown, IgG1) VH: EVQLVESGGGLVKPGGSLRLSCAASGFTFSDYYMSWIRQAPGKGLEWVSYISSSGSTIYYADSVKGRFTISRDNAKNSLYLQMNSLRAEDTAVYYCARVDYNEAFDIWGQGTLVTVSS VL: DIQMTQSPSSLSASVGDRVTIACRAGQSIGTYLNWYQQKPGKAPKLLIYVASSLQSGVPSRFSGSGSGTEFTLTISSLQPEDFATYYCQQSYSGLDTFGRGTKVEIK	ELISA signal (heat map)	34400
